Experiment: Pharmacokinetic assay in tumor-bearing mice where HCT-116 cells were transplanted (Test Example 3)
Assay type: in vivo
Settings: female, BALB/cAnNCrlj-nu/nu, plasma; tumor-bearing nude mouse, oral single dose 150 mg/kg, 0.5% methylcellulose, 24 hours; read-out: Plasma concentrations after oral administration, 24 hours
reported-endpoint: concentration at 24 h (ng/mL)
Write it as a number; the unit ng/mL goes unstated.

// field: concentration at 24 h; key: "O=C(/C=C/c1cccnc1)Nc1cn(Cc2cccc(Cl)c2)cn1" ; value = 142

---

Test system: HCT-116 cells
Assay: Inhibition test for sphere-forming ability of cancer cells in the presence of BSA (Test Example 2), HCT-116
Type: cell-based, human
Details: Homo sapiens, HCT-116, 96 h, HCT-116 cells, in the presence of 5% BSA, cultured 4 days
Record form. Attribute: pIC50. Fill in for each entry.
The meaning of pIC50 here: minus log10 of the concentration in molar units.

// field: pIC50; key: "N#Cc1ccc(/C=C/C(=O)Nc2cn(Cc3cccc(C(F)(F)F)c3)cn2)cc1OCCO" ; value = 6.16

// field: pIC50; key: "COc1ccc(C(=O)Nc2cn(Cc3cc(F)c(F)cc3F)cn2)cc1OC" ; value = 5.20

// field: pIC50; key: "COc1ccc(/C=C/C(=O)Nc2cn(Cc3cccc(C(F)(F)F)c3)cn2)cc1O" ; value = 7.05

// field: pIC50; key: "Cn1cc(C(=O)Nc2cn(Cc3cccc(C(F)(F)F)c3)cn2)ccc1=O" ; value = 5.67

// field: pIC50; key: "O=C(Nc1cn(Cc2cccc(C(F)(F)F)c2)cn1)c1ccc(NCC(F)(F)F)nc1" ; value = 5.62

// field: pIC50; key: "CS(=O)(=O)Nc1ccc(/C=C/C(=O)Nc2cn(Cc3cccc(Cl)c3)cn2)cc1" ; value = 5.19

---

Test system: HT-29 cells
Experiment: Inhibition test for sphere-forming ability of cancer cells (Test Example 1), HT-29
Format: cell-based, human
Details: concentration for 50% inhibition of cell proliferation, read-out: IC50 (μmol/L) HT-29 (Sphere IC50 value)
Source text: The reliable methods established for measuring the self-renewal ability of cells which is one of the CSC's properties include a method for measuring the sphere-forming ability of cancer cells in non-adherent condition in the absence of serum (Cancer Res 65, 5506-5511 (2005)). Human colorectal cancer-derived HCT-116 cells, human colon-adenocarcinoma-derived HT-29 cells, and human pharyngeal cancer-derived FaDu cells were available from American Type Culture Collection (ATCC). […]
Record form. Attribute: pIC50. Fill in for each entry.
The meaning of pIC50 here: minus log10 of the concentration in molar units.

// field: pIC50; key: COc1ccc(C(=O)Nc2cn(Cc3cc(F)c(F)c(F)c3F)cn2)cc1OC [Example 156] ; value = 6.41

// field: pIC50; key: O=C(/C=C/c1ccc(O)cc1)Nc1cn(Cc2cccc(Cl)c2)cn1 [Example 84] ; value = 6.28

// field: pIC50; key: O=C(/C=C/c1ccccc1Cl)Nc1cn(Cc2cccc(Cl)c2)cn1 [Example 51] ; value = 5.43

// field: pIC50; key: COc1ccc(NC(=O)c2cn(Cc3cccc(Cl)c3)cn2)cc1OC [Example 262] ; value = 6.22

// field: pIC50; key: O=C(/C=C/c1cccc(C(F)(F)F)c1)Nc1cn(Cc2cccc(Cl)c2)cn1 [Example 60] ; value = 5.01

// field: pIC50; key: O=C(Nc1cn(Cc2cccc(C(F)(F)F)c2)cn1)c1cnc2ncccc2c1 [Example 188] ; value = 6.20

// field: pIC50; key: O=C(/C=C/c1cccc(F)c1)Nc1cn(Cc2cccc(Cl)c2)cn1 [Example 57] ; value = 5.48

// field: pIC50; key: COc1ccccc1/C=C/C(=O)Nc1cn(Cc2cccc(Cl)c2)cn1 [Example 77] ; value = 6.42

// field: pIC50; key: CNc1ccc(/C=C/C(=O)Nc2cn(Cc3cccc(C(F)(F)F)c3)cn2)cn1 [Example 17] ; value = 7.40

// field: pIC50; key: O=C(/C=C/c1ccoc1)Nc1cn(Cc2cccc(Cl)c2)cn1 [Example 88] ; value = 6.08

// field: pIC50; key: O=C(/C=C/c1cccc(Oc2ccccc2)c1)Nc1cn(Cc2cccc(Cl)c2)cn1 [Example 79] ; value = 6.15

// field: pIC50; key: COc1ccc(C(=O)Nc2cn(Cc3c(F)ccc(C)c3F)cn2)cn1 [Example 216] ; value = 7.15

// field: pIC50; key: O=C(/C=C/c1ccc(F)cc1)Nc1cn(Cc2cccc(Cl)c2)cn1 [Example 62] ; value = 7.05

// field: pIC50; key: O=C(Nc1cn(Cc2cccc(C(F)(F)F)c2)cn1)c1ccc2ncccc2c1 [Example 183] ; value = 6.54

// field: pIC50; key: Cc1ccc(F)c(Cn2cnc(NC(=O)c3ccc(OC(C)C)nc3)c2)c1F [Example 217] ; value = 6.32

// field: pIC50; key: COc1ccc(C(=O)Nc2cn(Cc3ccc(F)c(F)c3F)cn2)cc1OC [Example 153] ; value = 6.14

// field: pIC50; key: O=C(/C=C/c1ccc(F)cc1Br)Nc1cn(Cc2cccc(Cl)c2)cn1 [Example 78] ; value = 5.20

// field: pIC50; key: O=C(Nc1ccc2c(O)cccc2c1)c1cn(Cc2cccc(Cl)c2)cn1 [Example 256] ; value = 5.14

// field: pIC50; key: O=C(Nc1ccc(Cn2cccn2)cc1)c1cn(Cc2cccc(Cl)c2)cn1 [Example 260] ; value = 6.15

// field: pIC50; key: O=C(Nc1cn(Cc2cccc(Cl)c2)cn1)c1ccc2cnccc2c1 [Example 191] ; value = 7.05

// field: pIC50; key: CC(C)Oc1ccc(C(=O)Nc2cn(Cc3cccc(OC(F)(F)F)c3)cn2)cn1 [Example 215] ; value = 6.18

// field: pIC50; key: Cc1cccc(NC(=O)c2cn(Cc3cccc(Cl)c3)cn2)n1 [Example 258] ; value = 6.15

// field: pIC50; key: COc1ccc(C(=O)Nc2cn(Cc3cccc(Cl)c3)cn2)c(OC)n1 [Example 189] ; value = 5.33
